# System: Salmonella enterica subsp. enterica serovar Typhimurium ATCC 14028
Listed below: MIC values for each entry.

These recorded examples may help you get a feel for the data.
{"compound": "CC(C)C[C@H](NC(=O)[C@H](Cc1ccc(O)cc1)NC(=O)[C@@H]1CCCN1C(=O)[C@@H]1CCCN1C(=O)[C@H](CCCN=C(N)N)NC(=O)[C@@H]1CCCN1C(=O)[C@H](CC(N)=O)NC(=O)[C@H](CC(N)=O)NC(=O)[C@@H](N)CC(N)=O)C(=O)N1CCC[C@H]1C(=O)N[C@@H](CCCN=C(N)N)C(=O)N1CCC[C@H]1C(=O)N[C@@H](CCCN=C(N)N)C(=O)N1CCC[C@H]1C(=O)N1CCC[C@H]1C(=O)O [NNNPRPPYLPRPRPP]", "MIC": "> 64 µM"}
{"compound": "CC(C)C[C@H](NC(=O)[C@@H]1CCCN1C(=O)[C@H](CCCCN)NC(=O)[C@H](CC(C)C)NC(=O)[C@H](CC(C)C)NC(=O)[C@@H]1CCCN1C(=O)[C@H](CCCCN)NC(=O)[C@H](CC(C)C)NC(=O)[C@H](CC(C)C)NC(=O)[C@@H]1CCCN1C(=O)[C@H](CCCCN)NC(=O)[C@H](CC(C)C)NC(=O)[C@H](CC(C)C)NC(=O)[C@@H]1CCCN1C(=O)[C@H](CCCCN)NC(=O)[C@@H](N)CC(C)C)C(N)=O [LKPLLKPLLKPLLKPL]", "MIC": "> 64 µM"}

Memo: CC[C@H](C)[C@H](NC(=O)[C@H](Cc1ccc(O)cc1)NC(=O)[C@@H](NC(=O)[C@H](CCCN=C(N)N)NC(=O)[C@H](CC(N)=O)NC(=O)[C@H](CC(N)=O)NC(=O)CN)C(C)C)C(=O)N1CCC[C@H]1C(=O)N[C@@H](CCC(N)=O)C(=O)N1CCC[C@H]1C(=O)N[C@@H](CCCN=C(N)N)C(=O)N1CCC[C@H]1C(=O)N[C@@H](Cc1cnc[nH]1)C(=O)N1CCC[C@H]1C(=O)N[C@@H](CCCN=C(N)N)C(=O)N[C@@H](CC(C)C)C(=O)O [GNNRVYIPQPRPHPRL] , reported MIC: > 128 µM

Reference for the values: DBAASP
